Measured kinase still bound, per cent of control of individual entries
biological target: PDGFRA (human) (UniProt P16234); experiment: KINOMEscan competition binding; conditions: compound 10.0 µM
Sequence (P16234 whole entry, looked up): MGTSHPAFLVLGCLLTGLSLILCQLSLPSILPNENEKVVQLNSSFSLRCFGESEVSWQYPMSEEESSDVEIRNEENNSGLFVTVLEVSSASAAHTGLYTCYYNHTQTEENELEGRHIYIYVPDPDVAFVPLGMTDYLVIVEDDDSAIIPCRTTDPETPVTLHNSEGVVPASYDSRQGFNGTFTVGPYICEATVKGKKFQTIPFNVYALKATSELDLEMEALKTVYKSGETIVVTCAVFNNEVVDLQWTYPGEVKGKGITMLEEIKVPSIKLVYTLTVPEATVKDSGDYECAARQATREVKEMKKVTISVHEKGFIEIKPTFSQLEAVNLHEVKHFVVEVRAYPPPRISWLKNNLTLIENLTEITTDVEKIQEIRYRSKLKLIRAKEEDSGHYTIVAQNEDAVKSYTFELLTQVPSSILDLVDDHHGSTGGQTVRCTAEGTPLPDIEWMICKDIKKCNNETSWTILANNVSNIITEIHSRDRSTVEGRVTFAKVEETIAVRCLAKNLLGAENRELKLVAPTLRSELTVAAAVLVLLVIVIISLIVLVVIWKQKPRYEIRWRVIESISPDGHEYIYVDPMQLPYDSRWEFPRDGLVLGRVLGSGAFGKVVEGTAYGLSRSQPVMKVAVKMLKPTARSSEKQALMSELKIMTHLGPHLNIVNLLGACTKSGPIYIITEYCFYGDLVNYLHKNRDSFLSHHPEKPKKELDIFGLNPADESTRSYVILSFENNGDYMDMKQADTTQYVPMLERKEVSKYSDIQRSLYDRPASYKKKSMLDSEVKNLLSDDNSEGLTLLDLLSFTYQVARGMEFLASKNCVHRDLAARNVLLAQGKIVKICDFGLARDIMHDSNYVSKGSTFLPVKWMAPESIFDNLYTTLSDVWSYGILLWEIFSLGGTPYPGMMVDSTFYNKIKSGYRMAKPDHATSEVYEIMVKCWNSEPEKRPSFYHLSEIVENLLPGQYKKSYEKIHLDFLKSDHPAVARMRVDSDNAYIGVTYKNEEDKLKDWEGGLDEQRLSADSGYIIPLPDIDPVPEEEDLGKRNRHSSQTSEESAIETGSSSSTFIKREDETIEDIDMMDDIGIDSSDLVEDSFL
Put your answer as a value accompanied by its unit after it.

Example results:
• COc1cc(N2CCN(C)CC2)ccc1Nc1ncc2c(n1)Nc1ccccc1NC2=O = 91%
• COc1cc(N2CCN(C)CC2)ccc1Nc1ncc2c(n1)N1CCC[C@H]1CC(=O)N2 = 1.8%
• CN1C(=O)c2ccccc2N(C)c2nc(NS(=O)(=O)c3ccc(N)cc3)ncc21 = 100%

Input: I have this compound here, CS(=O)(=O)Nc1ccc(-c2ncc(/C=C3\SC(=N)NC3=O)s2)cc1 , and I need its recorded kinase still bound, per cent of control.
Output: 26%

Input: What do you get for N=C1NC(=O)/C(=C/c2ccc(-c3cncc4ccccc34)o2)S1 ?
Output: 26%

---

test system: EGFR (human), P00533 [G719S]; test: KINOMEscan competition binding; conditions: compound 10.0 µM
Measured kinase still bound, per cent of control of individual entries
Quick reminder: number only, in %, skip the unit.

Example results:
• COc1cc(N2CCN(C)CC2)ccc1Nc1ncc2c(n1)N(C)c1sccc1C(=O)N2C = 72
• COc1cc(N2CCN(C)CC2)ccc1Nc1ncc2c(n1)N(C)c1ccccc1N(C)C2=O = 90
• N=C1NC(=O)/C(=C/c2ccc(-c3cncc4ccccc34)o2)S1 = 26
• O=C1NC(=O)C(=Cc2ccc(-c3ccc(S(=O)(=O)N4CCNCC4)cc3)o2)C(=O)N1 = 6.9
• COc1cc(N2CCC(O)CC2)ccc1Nc1ncc2c(n1)N1CCc3cccc(c31)C(=O)N2C = 76
• O=C1NC(=S)S/C1=C\c1ccc(-c2cncc3ccccc23)o1 = 27

Input: Short answer please: kinase still bound, per cent of control, EGFR (human), P00533 [G719S], entry O=C1NC(=O)/C(=C/c2c[nH]c(=O)c(-c3ccc(N4CCNCC4)nc3)c2)S1
Output: 58

Input: What do you get for CN1C(=O)c2ccccc2N(C)c2nc(NS(=O)(=O)c3ccc(N)cc3)ncc21 ?
Output: 100

Input: What do you get for O=C1NC(=O)/C(=C/c2ccc(-c3ccc(F)cc3O)o2)S1 ?
Output: 19

Input: What do you get for COc1cc(N2CCC(O)CC2)ccc1Nc1ncc2c(n1)N(c1ccccc1)CCC(=O)N2C ?
Output: 23

---

system: KIT (human), P10721 [D816V]; experiment: KINOMEscan competition binding; details: compound 10.0 µM
Sequence (P10721 whole entry D816V, looked up): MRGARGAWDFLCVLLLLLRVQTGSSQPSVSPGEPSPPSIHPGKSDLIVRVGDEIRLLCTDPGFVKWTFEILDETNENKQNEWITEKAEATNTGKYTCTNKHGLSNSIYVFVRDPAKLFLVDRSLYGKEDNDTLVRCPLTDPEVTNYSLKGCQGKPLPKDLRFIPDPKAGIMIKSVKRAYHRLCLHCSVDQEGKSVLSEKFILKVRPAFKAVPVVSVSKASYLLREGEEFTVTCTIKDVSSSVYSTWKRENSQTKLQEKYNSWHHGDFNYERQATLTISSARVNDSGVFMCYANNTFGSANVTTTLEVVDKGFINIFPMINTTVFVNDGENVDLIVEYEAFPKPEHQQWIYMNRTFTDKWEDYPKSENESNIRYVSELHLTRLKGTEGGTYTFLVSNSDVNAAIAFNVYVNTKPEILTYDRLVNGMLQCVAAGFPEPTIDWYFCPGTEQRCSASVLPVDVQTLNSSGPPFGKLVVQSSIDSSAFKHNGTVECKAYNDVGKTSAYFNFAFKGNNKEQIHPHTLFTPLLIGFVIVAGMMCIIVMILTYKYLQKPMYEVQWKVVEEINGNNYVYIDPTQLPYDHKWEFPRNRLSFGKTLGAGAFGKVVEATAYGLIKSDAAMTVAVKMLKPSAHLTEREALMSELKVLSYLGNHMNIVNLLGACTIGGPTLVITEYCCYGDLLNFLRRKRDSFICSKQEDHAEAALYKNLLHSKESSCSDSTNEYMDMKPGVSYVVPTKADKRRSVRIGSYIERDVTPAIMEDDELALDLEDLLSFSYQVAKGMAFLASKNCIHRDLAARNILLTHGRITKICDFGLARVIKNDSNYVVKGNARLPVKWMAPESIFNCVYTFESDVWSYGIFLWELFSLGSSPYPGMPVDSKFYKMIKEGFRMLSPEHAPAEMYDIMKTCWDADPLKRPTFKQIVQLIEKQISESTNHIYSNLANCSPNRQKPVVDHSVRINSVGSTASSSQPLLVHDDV
// classify: if (kinase still bound, per cent of control < 80%) fulfilled else not fulfilled

Completed entries (count: 4):
- COc1cc(N2CCN(C)CC2)ccc1Nc1ncc2c(n1)N(C)c1ccccc1N(C)C2=O: not fulfilled
- COc1cc(N2CCN(C)CC2)ccc1Nc1ncc2c(n1)N1CCC[C@H]1CC(=O)N2: fulfilled
- COc1cc(N2CCN(C)CC2)ccc1Nc1ncc2c(n1)Nc1ccccc1NC2=O: fulfilled
- CS(=O)(=O)Nc1ccc(-c2cncc(/C=C3\SC(=N)NC3=O)c2)cc1: fulfilled

Next item in the queue.
Input: Does the reported kinase still bound, per cent of control of the following molecule sit strictly below 80%? O=C1NC(=O)/C(=C/c2c[nH]c(=O)c(-c3ccc(N4CCNCC4)nc3)c2)S1
Output: fulfilled
